Provenance of the data: the supplement of paper PMC11417369

Entries annotated with measured gcPBM binding intensity (ln)
System: PfHDP1 homeodomain (GST-tagged)
Test: gcPBM binding intensity (ln(normalized median fluorescence intensity)); higher = stronger DNA binding
Over roughly 25,000 sequences, “ln(normalized median fluorescence intensity)” has its median near 6.7; the highest 2% begin near 10. This excerpt belongs to a sample that is enriched for the highest values.
MEASURED_QUANTITY: gcPBM binding intensity (ln)

>>> measured_result("GCACACATATAATTAAACATATATTTGTATTATTTT [GTGCAC_negctrl_site327]")
6.5
>>> measured_result("CTTTTTTTAATATGCACACATATATTTTATATATTA [CACACA_site2077]")
10.3
>>> measured_result("ATTATATACATATATGCACACAAAAAAATATATATT [CACACA_site8508]")
9.93
>>> measured_result("TTAATTTATTTATGCACACATATATAATTACCCATA [CACACA_site682]")
10.7
>>> measured_result("CTTATATTAATTATTACACACATATTTATAAATGCA [CACACA_site6501]")
6.66
>>> measured_result("GTATTATTATTATGCACACAAAAATATTTATACATA [CACACA_site3656]")
10.9
>>> measured_result("TATATATCAAAAATATGTACACAGAAATATATATTA [XGTACX_site6997]")
6.96
>>> measured_result("TCGTACTTGTATTATGCACACATATAATTAAACATA [CACACA_site9089]")
10.5
>>> measured_result("TTAATTTATTTATGCACACATATATAATTACACATA [CACACA_site4544]")
10.7
